Some compounds, each annotated with its measured EC50.
target: human D2R long isoform (Homo sapiens, UniProt P14416); construct: gene DRD2; full-length long isoform stably expressed in CHO-K1 cells from DiscoverX, HitHunter cAMP assay; test: HitHunter cAMP assay, inhibition of forskolin-stimulated cAMP, agonist mode; type: cell-based; settings: read-out: cAMP inhibition assay / EC50 (μM ± S.E.M.)
Sequence (P14416 whole entry, canonical isoform): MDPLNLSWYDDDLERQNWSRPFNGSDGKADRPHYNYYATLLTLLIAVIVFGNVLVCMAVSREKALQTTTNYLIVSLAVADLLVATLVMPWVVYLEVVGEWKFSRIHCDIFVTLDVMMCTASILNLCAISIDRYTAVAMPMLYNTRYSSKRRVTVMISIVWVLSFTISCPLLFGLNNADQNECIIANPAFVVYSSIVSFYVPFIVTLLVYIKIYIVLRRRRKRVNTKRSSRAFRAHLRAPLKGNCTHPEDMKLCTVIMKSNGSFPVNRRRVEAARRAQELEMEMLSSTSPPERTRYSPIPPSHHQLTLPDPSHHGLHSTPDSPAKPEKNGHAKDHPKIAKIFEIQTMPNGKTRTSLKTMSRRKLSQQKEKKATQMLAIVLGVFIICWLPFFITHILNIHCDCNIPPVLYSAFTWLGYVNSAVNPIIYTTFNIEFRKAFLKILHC
Report the value in µM with no unit label.

Known EC50 results, listed for orientation:
INSERT INTO results (compound, scale_unit, test_value) VALUES
  ('c1cnc(N2CCN(Cc3cc4ccccc4[nH]3)CC2)nc1 [compound 44]', 'µM', 0.6),
  ('c1ccc2c(CN3CCN(c4cnccn4)CC3)cccc2c1 [compound 38]', 'µM', 27.3),
  ('c1cnc(N2CCN(Cc3ccc4ccccc4c3)CC2)nc1 [compound 45]', 'µM', 0.8),
  ('Oc1c(CN2CCN(c3cnccn3)CC2)cc(Cl)c2cccnc12 [compound 18]', 'µM', 3.5),
  ('Oc1c(CN2CCN(c3ccccc3)CC2)cc(Cl)c2cccnc12 [compound 23]', 'µM', 2.8),
  ('Oc1c(CN2CCN(c3ncccn3)CC2)cc(Cl)c2cccnc12 [compound 19]', 'µM', 0.7),
  ('c1cncc(N2CCN(Cc3cccc4ccccc34)CC2)c1 [compound 28]', 'µM', 13.3),
  ('c1cnc(N2CCN(Cc3ccc4cc[nH]c4c3)CC2)nc1 [compound 43]', 'µM', 0.04);

Now look at this entry.
QUERY: Look up EC50 for this compound: c1cnc(N2CCN(Cc3cccc4ccccc34)CC2)nc1 [compound 46]
RESULT: 8.5

* * *

This section presents compounds with their documented pEC50 values.
target: D2R long isoform (PathHunter) (Homo sapiens, UniProt P14416); construct: long isoform in CHO-K1 PathHunter cells (DiscoverX), beta-galactosidase enzyme-fragment complementation with beta-arrestin; reporter tags not detailed; assay: PathHunter beta-arrestin recruitment, agonist mode
Sequence (P14416 whole entry, the tested form may be a part, canonical isoform): as the sequence (P14416 whole entry, canonical isoform) above
Notebook: values listed as pEC50 are -log10 of the concentration (mol/L).

QUERY: Param item = `c1cncc(N2CCN(Cc3cccc4ccccc34)CC2)c1` ; retrieve measured pEC50.
RESULT: 5.11

* * *

target: human D2R long isoform (Homo sapiens, UniProt P14416); construct: gene DRD2; full-length long isoform stably expressed in CHO-K1 cells from DiscoverX, HitHunter cAMP assay; test: HitHunter cAMP assay, inhibition of forskolin-stimulated cAMP, agonist mode; assay type: cell-based; conditions: read-out: cAMP inhibition assay / EC50 (μM ± SEM)
# note: boundary value 2 µM maps to criterion not met; EC50 below it maps to criterion met

Example results:
INSERT INTO measurements (smiles_string, target_desc, class_name) VALUES
  ('Clc1c(CN2CCN(c3ccccn3)CC2)ccc2cccnc12', 'human D2R long isoform (Homo sapiens, UniProt P14416)', 'criterion not met'),
  ('c1ccc(N2CCN(Cc3cccc4ccccc34)CC2)nc1', 'human D2R long isoform (Homo sapiens, UniProt P14416)', 'criterion met'),
  ('Oc1c(CN2CCN(c3ccccn3)CC2)cc(Br)c2cccnc12', 'human D2R long isoform (Homo sapiens, UniProt P14416)', 'criterion not met');

QUERY: Please state whether EC50 is below 2 µM for `Oc1c(CN2CCN(c3ccccn3)CC2)ccc2cccnc12`
RESULT: criterion met

QUERY: Please indicate whether the reported EC50 of `COc1c(CN2CCN(c3ccccn3)CC2)cc(Cl)c2cccnc12` is strictly below 2 µM.
RESULT: criterion not met

QUERY: Is EC50 of `Oc1c(CN2CCN(c3ccccn3)CC2)cc(Cl)c2cccnc12` strictly below 2 µM?
RESULT: criterion not met

Provenance of the data: paper PMC5826336
